// values below are reported protein stability index
B1: GALNT9 (parent)
chain: FTQSGPIVSRATGRCLEVEMSKDA

# Variants of: B1
# Assay Method Text: protein stability index of a GFP-peptide fusion (GPS, HEK-293T) (PSI 1-6); higher = more stable;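 also: lentivirally expressed fusions sorted by FACS into six bins by GFP to DsRed ratio, PSI derived from sequencing read proportions per bin multiplied by bin number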
# Study Conditions: c terminus: a fixed tail appended

Prompt line: Could you tell me which protein stability index is on file for `Q3T` ?
Response line: 1.94

Prompt line: What do we get for `V8H` ?
Response line: 2.58

Prompt line: Then `A11M` ?
Response line: 1.73

Prompt line: And what about the variant `L16M` ?
Response line: 2.29

Prompt line: Also check `C15F`
Response line: 2.44
